The reported numbers originate from patent US7439263B2.

Where a name gives a salt, the structure may show the parent alone.
These molecules were tested on Dipeptidyl-Peptidase IV (DPP IV) (Sus scrofa); pIC50 is the recorded read-out.
Give bare numbers, as −log10 of the molar value.

Example entries begin here.
* N#C[C@@H]1CSCN1C(=O)CNC1CCC2(CCCCC2)CC1 [Example 18, trifluoroacetate] | 8.46
* N#C[C@@H]1CCCN1C(=O)CNC1CCC2(CCNCC2)CC1 [Example 20, bis(trifluoroacetate)] | 7.14
* N#C[C@@H]1CCCN1C(=O)CNC1CCC2(CCSCC2)CC1 [Example 23, hydrochloride] | 7.57

Okay, now this molecule:
Specify reported pIC50 for the molecule shown: N#C[C@@H]1C[C@H](F)CN1C(=O)CNC1(CO)CCC2(CCOCC2)CC1 7.50

----------
Hi there, I'd appreciate the recorded pIC50 for every entry that follows.
Biological target: Dipeptidyl-Peptidase IV (DPP IV) (Sus scrofa, UniProt P22411)
Construct: using 10 μl of the pig kidney preparation; from tissue; host or cells: pig kidney membrane fraction, solubilised with n-octyl-β-glucopyranoside
Sequence (P22411 whole entry): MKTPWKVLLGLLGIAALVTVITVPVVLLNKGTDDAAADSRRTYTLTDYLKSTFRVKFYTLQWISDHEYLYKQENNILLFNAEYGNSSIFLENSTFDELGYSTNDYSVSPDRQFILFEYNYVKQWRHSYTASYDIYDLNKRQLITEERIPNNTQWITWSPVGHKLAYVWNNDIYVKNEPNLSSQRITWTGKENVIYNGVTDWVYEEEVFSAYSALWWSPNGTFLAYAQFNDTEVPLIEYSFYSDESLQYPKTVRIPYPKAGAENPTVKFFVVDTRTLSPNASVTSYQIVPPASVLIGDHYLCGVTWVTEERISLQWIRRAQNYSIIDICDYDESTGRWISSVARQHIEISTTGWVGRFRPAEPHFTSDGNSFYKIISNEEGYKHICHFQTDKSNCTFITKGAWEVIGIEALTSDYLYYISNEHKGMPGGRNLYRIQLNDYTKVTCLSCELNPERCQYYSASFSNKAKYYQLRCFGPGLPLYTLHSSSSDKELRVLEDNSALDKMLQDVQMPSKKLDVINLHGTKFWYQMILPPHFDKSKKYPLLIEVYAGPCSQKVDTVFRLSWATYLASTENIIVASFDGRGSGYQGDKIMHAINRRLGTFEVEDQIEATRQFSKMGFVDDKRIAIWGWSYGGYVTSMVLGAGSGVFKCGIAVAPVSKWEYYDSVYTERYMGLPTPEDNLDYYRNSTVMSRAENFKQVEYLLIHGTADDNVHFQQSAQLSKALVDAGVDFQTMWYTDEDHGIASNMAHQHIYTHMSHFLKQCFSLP
Test: Inhibition of dipeptidyl-peptidase IV in pig kidney (Gly-Pro-pNA cleavage, absorbance at 405 nm)
Assay type: biochemical
Conditions: pig kidney membrane preparation; substrate Gly-Pro-pNA; 60 min at 37° C.; geometric mean of the IC50s
Where a name gives a salt, the structure may show the parent alone.
One number for each entry, as −log10 of the molar value.

* N#C[C@@H]1CCCN1C(=O)CNC1CCC2(CCCCCCC2)CC1 [Example 6, hydrochloride] | 7.57
* N#C[C@@H]1CCCN1C(=O)CNC1(CO)CC2(CCCC2)C1 [Example 17, hydrochloride] | 7.36
* N#C[C@@H]1CC(F)(F)CN1C(=O)CNC1(CO)CCC2(CCOCC2)CC1 [Example 30] | 7.69

Hey, quick one: what's pIC50 for each of these?
1. N#C[C@@H]1CCCN1C(=O)CNC1CCC2(CC1)CCC1(CCCCC1)CC2 [Example 8]
2. N#C[C@@H]1CCCN1C(=O)CNC1CCC2(CC1)CC2 [Example 28]

7.64
6.77
